MEASURED TARGET: Voltage-gated potassium channel subunit beta-2 (Rattus norvegicus)
PROTOCOL SUMMARY: inhibitors of rat Kvbeta2 reductase activity – biochemical, NADPH fluorescence, primary screen (AID 622);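 further: slope of raw intensity against log time taken from 70 to 1610 s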
EXPERIMENTAL CONTEXT: recombinant KvBeta, 4-cyanobenzaldehyde reduction, at 10 µM, stronger effect = higher value
ENDPOINT NAME: fluorescence slope
Please give only the number in your answer, with no unit.

# annotated cases, reported fluorescence slope shown
COMPOUND: Cn1c2c(c(=O)n(C)c1=O)C(CC(=O)Nc1ccccc1)C(=O)N2 (stereo unspecified)
fluorescence slope: -0.597
//
COMPOUND: O=C(CCn1c(=O)oc2ccccc21)N1CCN(c2ccccc2Cl)CC1
fluorescence slope: -0.379
//
COMPOUND: COc1ccc(C2/C(=C(/O)c3ccccc3)C(=O)C(=O)N2C)cc1 (stereo unspecified)
fluorescence slope: -0.369
//
COMPOUND: CC(C)(C)Cc1nc(-c2ccccn2)no1
fluorescence slope: -0.44
//
COMPOUND: CCOC(=O)c1ccc(NC(=O)COc2ccc(-n3cnnn3)cc2)cc1
fluorescence slope: -0.405
//
COMPOUND: Cc1cccc(NC(=O)c2ccc3ccccc3n2)n1
fluorescence slope: -0.303
//
COMPOUND: CCc1nnc(NC(=O)c2cc3c(s2)CCCCC3)s1
fluorescence slope: -0.406
//
COMPOUND: O=C(NC1CCCC1)C(c1cccs1)N(Cc1ccco1)C(=O)Cn1nnc(-c2cccs2)n1 (stereo unspecified)
fluorescence slope: -0.487

Value (fluorescence slope, Voltage-gated potassium channel subunit beta-2 (Rattus norvegicus)) for record Cc1ccc(-n2nc(C)c3cc(C(=O)O)sc32)cc1 = -0.191

Value (fluorescence slope, Voltage-gated potassium channel subunit beta-2 (Rattus norvegicus)) for record Cc1c(NC(=O)c2ccc(CN3CCc4ccccc4C3)cc2)c(=O)n(-c2ccccc2)n1C = -0.403

Value (fluorescence slope, Voltage-gated potassium channel subunit beta-2 (Rattus norvegicus)) for record CCCNc1nc2c(c(=O)n(C)c(=O)n2C)n1Cc1cccc(C)c1 = -0.567
